ASSAY TARGET: T1, human IL-33 (R&D Systems, #3625-IL-010/CF) (human, UniProt O95760 112-270)
T1 construct: Commercial recombinant protein; also called hIL-33; interleukin-33
T1 sequence (looked up): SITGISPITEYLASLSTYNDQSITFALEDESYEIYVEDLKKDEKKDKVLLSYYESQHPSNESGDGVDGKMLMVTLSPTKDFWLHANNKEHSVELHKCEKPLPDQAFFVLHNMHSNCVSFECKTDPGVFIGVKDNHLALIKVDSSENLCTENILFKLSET
ASSAY NAME: BLI; hIL-33 pre-mixed with mAb-2 Isotype control 2
Recorded mAb-1 Binding to the Pre-complex of mAb-2 & hIL-33, one value per entry.
MEASURED ENDPOINT: mAb-1 Binding to the Pre-complex of mAb-2 & hIL-33 (nm)

>  <BINDER>
H1M9568N (antibody, mouse IgG1, V domains shown, Human variable domains, mouse IgG1 Fc (H1M)) VH: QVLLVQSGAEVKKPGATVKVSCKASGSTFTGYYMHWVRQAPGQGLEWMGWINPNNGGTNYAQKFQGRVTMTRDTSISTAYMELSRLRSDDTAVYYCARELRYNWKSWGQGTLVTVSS VL: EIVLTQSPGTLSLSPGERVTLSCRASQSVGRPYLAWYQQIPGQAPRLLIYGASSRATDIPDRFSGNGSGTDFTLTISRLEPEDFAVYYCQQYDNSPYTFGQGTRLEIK

>  <VALUE REPORTED>
0.1

$$$$
>  <BINDER>
H4H9640P (antibody, human IgG4, V domains shown, Human IgG4 Fc (H4H)) VH: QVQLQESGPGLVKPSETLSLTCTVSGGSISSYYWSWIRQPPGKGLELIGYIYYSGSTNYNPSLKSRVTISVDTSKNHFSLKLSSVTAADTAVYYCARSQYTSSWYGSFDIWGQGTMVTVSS VL: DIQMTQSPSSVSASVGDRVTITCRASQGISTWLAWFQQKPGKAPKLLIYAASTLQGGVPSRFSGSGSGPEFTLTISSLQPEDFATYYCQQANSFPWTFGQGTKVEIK

>  <VALUE REPORTED>
0.1

$$$$
>  <BINDER>
H1M9566N (antibody, mouse IgG1, V domains shown, Human variable domains, mouse IgG1 Fc (H1M)) VH: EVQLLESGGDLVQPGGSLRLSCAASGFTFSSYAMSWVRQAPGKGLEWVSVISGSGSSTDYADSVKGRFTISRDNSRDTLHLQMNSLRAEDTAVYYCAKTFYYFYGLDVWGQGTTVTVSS VL: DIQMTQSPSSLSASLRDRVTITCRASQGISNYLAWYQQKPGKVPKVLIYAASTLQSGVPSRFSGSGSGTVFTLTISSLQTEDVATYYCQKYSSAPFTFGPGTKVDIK

>  <VALUE REPORTED>
0.1

$$$$

Entry source: patent US20160362487A1
